# assay_overview: chemical genetic growth profiling, strain panel (AID 1159580);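 also: tested at 20 µM; growth read once vehicle control cultures reached saturation at 30 °C; lower values mean less growth of the strain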
# details: S. cerevisiae deletion strains, growth OD, locus YOL012C, strain htz1
Among all 5,500 compounds or so, about 2,000 (36%) were called active. Another 18% or so got no clear call; they are omitted. The list shows a part of the results.
Checkbox rule: normalized growth lower than 1 = rule met; normalized growth not lower than 1 = rule not met.

[ask] Report whether reported normalized growth is lower than 1 (strictly) for CC(=O)c1c(O)c(C)c(O)c2c1oc1c(C(C)=O)c(O)c(C)c(O)c12
[reply] rule met

More entries:
[ask] Report whether reported normalized growth is lower than 1 (strictly) for C[C@H]1CC2C([C@@H](O)C[C@@]3(C)C2CC[C@]3(O)C(=O)CO)[C@@]2(C)C=CC(=O)C=C12 (stereo partly drawn)
[reply] rule not met

[ask] Report whether reported normalized growth is lower than 1 (strictly) for CO[C@H]1[C@H](O)[C@H](O[C@H]2CC[C@]3(C)C4CC[C@]5(C)C(C6=CC(=O)OC6)CC[C@]5(O)C4CC[C@@H]3C2)O[C@@H](C)[C@@H]1O (stereo partly drawn)
[reply] rule not met

[ask] Report whether reported normalized growth is lower than 1 (strictly) for CCC(=O)O[C@H]1[C@H](O[C@@H]2[C@@H](C)[C@H](O[C@H]3C[C@@](C)(OC)[C@@H](O)[C@H](C)O3)[C@@H](C)C(=O)O[C@H](CC)[C@@](C)(O)[C@H](O)[C@@H](C)C(=O)[C@H](C)C[C@@]2(C)O)O[C@H](C)C[C@@H]1N(C)C
[reply] rule met

[ask] Report whether reported normalized growth is lower than 1 (strictly) for COP(=O)(OC)OC=C(Cl)Cl
[reply] rule not met

[ask] Report whether reported normalized growth is lower than 1 (strictly) for C=Cc1c2[nH]c(c1C)C=c1[nH]c(c(C)c1C=C)=CC1N=C(C=c3[nH]c(c(C)c3CCC(=O)O)=C2)C(CCC(=O)O)=C1C (stereo not drawn)
[reply] rule met

[ask] Report whether reported normalized growth is lower than 1 (strictly) for COc1ccc2c(c1)O[C@@H]1COc3cc(OC)c(OC)cc3[C@@H]1C2=O
[reply] rule met

[ask] Report whether reported normalized growth is lower than 1 (strictly) for CN(C)CC/C=C1\c2ccccc2Sc2ccc(Cl)cc21
[reply] rule not met
